experimental-target: Histamine H3 receptor (Homo sapiens, UniProt Q9Y5N1)
Sequence (Q9Y5N1 whole entry): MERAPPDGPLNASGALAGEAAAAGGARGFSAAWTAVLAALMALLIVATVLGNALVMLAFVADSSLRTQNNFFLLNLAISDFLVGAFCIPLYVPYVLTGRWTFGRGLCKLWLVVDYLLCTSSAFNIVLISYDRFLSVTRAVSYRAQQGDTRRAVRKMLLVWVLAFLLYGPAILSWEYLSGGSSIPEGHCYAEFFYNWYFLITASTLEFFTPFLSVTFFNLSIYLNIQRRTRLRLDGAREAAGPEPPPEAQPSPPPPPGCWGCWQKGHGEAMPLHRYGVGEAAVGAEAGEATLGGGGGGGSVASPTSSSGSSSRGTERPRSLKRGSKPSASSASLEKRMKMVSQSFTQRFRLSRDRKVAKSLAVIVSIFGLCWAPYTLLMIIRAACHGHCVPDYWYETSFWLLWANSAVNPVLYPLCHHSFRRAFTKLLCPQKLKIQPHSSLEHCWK
test-description: Binding affinity to human H3R
metric-name: Ki (nM)
Numbers only, in nM.

Task item: Recorded Ki for `C[C@@H]1CCCN1[C@H]1C[C@H](c2ccc(-c3ccc(C#N)cc3)cc2)C1` , please?
Reply: 0.17

----------
test-description: Ratio of test compound IC50 to doxorubicin IC50 for cytotoxicity against human HepG2 cells assessed as cell viability incubated for 72 hrs by cellTiter 96 AQueous non-radioactive cell proliferation assay
Type: cell-based
recorded-conditions: read-out: Ratio IC50
metric-name: selectivity ratio at 72 h

Task item: For the molecule shown here, `O=C(O)C(=O)O.c1ccc(-c2ccc(OCCCCCN3CCCCC3)cc2)cc1` , give the reported selectivity ratio at 72 h.
Reply: > 30
